- Test system: phosphorylation of Cdc2 Y15 (Wee1 substrate) in A427 cells
- PROTOCOL_DESCRIPTION: Phosphorylated Cdc2 MSD Electrochemiluminescence Assay
- Assay type: cell-based
- CONDITION_DESCRIPTION: Homo sapiens, A-427, pCDC2 MSD
pIC50: −log10 of the molar value.

| COMPOUND | pIC50 |
| --- | --- |
| CNCc1cccc(N2c3nc(Nc4ccc(N5C(=O)CC[C@H]5C)cc4)ncc3[C@@]3(C)COC(C)(C)C[C@@H]23)n1 (single isomer, unassigned) | 6.00 to 7.00 |
| C[C@H]1COC(=O)N1c1cccc(N2c3nc(Nc4ccc(O[C@@H]5CCN(C)C5)nc4)ncc3[C@@]3(C)COC(C)(C)C[C@@H]23)n1 (single isomer, unassigned) | 6.00 to 7.00 |
| CN1CCC(n2cnc(Nc3ncc4c(n3)N(c3cccc(N=S(C)(C)=O)n3)[C@@H]3CC(C)(C)OC[C@]43C)c2)CC1 (single isomer, unassigned) | > 7.00 |
| C[C@H]1COC(=O)N1c1cccc(N2c3nc(Nc4ccc(OC5CCN(C)CC5)nc4)ncc3[C@@]3(C)COC(C)(C)C[C@@H]23)n1 (single isomer, unassigned) | > 7.00 |
| CNCc1cccc(N2c3nc(Nc4cnn(C(C)(C)C)c4)ncc3[C@@]3(C)COC(C)(C)C[C@@H]23)n1 (single isomer, unassigned) | > 7.00 |
| CN1CC2(C1)CN(c1ccc(Nc3ncc4c(n3)N(c3cccc(N=S(C)(C)=O)n3)[C@@H]3CC(C)(C)OC[C@]43C)cc1)C2 | 6.00 to 7.00 |
| CNC(=O)c1ccc(Nc2ncc3c(n2)N(c2cccc(N=S(C)(C)=O)n2)[C@@H]2CC(C)(C)OC[C@]32C)cc1F | 6.00 to 7.00 |
| CN1Cc2cc(Nc3ncc4c(n3)N(c3cccc(N=S(C)(C)=O)n3)[C@@H]3CC(C)(C)OC[C@]43C)ccc2C2(CC2)C1 (single isomer, unassigned) | > 7.00 |
| C[C@H]1COC(=O)N1c1cccc(N2c3nc(Nc4ccc([C@@H]5CCN(C)C5)nc4)ncc3[C@@]3(C)COC(C)(C)C[C@@H]23)n1 (single isomer, unassigned) | > 7.00 |
| Cc1cc(Nc2ncc3c(n2)N(c2cccc(C(C)(C)O)n2)[C@@H]2CC(C)(C)OC[C@]32C)ccc1C1CCN(C)CC1 (single isomer, unassigned) | 6.00 to 7.00 |
| CC1(C)C[C@H]2N(c3cccc(N=S(C)(C)=O)n3)c3nc(Nc4ccn([C@@H]5CCOC5)c(=O)c4)ncc3[C@@]2(C)CO1 (single isomer, unassigned) | 6.00 to 7.00 |

---

- TESTED_SYSTEM: Wee1 kinase domain (Homo sapiens)
- Construct: Wee1 kinase domain was purchased from Carna (catalog #05-177); purchased Carna 05-177
- PROTOCOL_DESCRIPTION: Wee1 Kinase Biochemical Assay (ADP-Glo)
- CONDITION_DESCRIPTION: Wee1 kinase domain, 15 uM ATP, ADP-Glo
IC50: recorded values

| COMPOUND | IC50 |
| --- | --- |
| CNCc1cccc(N2c3nc(Nc4ccc5c(c4)C(=O)N(C)CC5(C)C)ncc3[C@@]3(C)COC(C)(C)C[C@@H]23)n1 (single isomer, unassigned) [Example 92] | < 10 nM |
| C[C@H]1COC(=O)N1c1cccc(N2c3nc(Nc4ccn(C5CCN(C)CC5)c(=O)c4)ncc3[C@@]3(C)COC(C)(C)C[C@@H]23)n1 (single isomer, unassigned) [Example 273] | < 10 nM |
| C[C@H]1COC(=O)N1c1cccc(N2c3nc(Nc4ccc(C(C)(C)C)nc4)ncc3[C@]3(C)COC(C)(C)C[C@H]23)n1 (single isomer, unassigned) [Example 300] | 100 to 1000 nM |
| CC1(C)C[C@H]2N(c3cccc(N=S(C)(C)=O)n3)c3nc(Nc4ccn(C5CC5)c(=O)c4)ncc3[C@@]2(C)CO1 (single isomer, unassigned) [Example 380] | < 10 nM |
| CN1C[C@@H]2CN(c3ccc(Nc4ncc5c(n4)N(c4cccc(N=S(C)(C)=O)n4)[C@H]4CC(C)(C)OC[C@@]54C)cc3)C[C@@H]2C1 (single isomer, unassigned) [Example 218] | 10 to 100 nM |
| CN1CC(c2ccc(Nc3ncc4c(n3)N(c3cccc(N=S(C)(C)=O)n3)[C@@H]3CC(C)(C)OC[C@]43C)cn2)C1 (single isomer, unassigned) [Example 192] | < 10 nM |
| C[C@H]1COC(=O)N1c1cccc(N2c3nc(N)ncc3[C@@]3(C)COC(C)(C)C[C@@H]23)n1 (single isomer, unassigned) [Example 356] | 10 to 100 nM |
| CNC(=O)c1ccc(Nc2ncc3c(n2)N(c2cccc(N=S(C)(C)=O)n2)C2CC(C)(C)OCC32C)cc1F (single isomer, unassigned) [Example 118] | ≥ 1000 nM |
| CNCc1cccc(N2c3nc(Nc4ccc5c(c4)C(=O)N(C)CC5(C)C)ncc3[C@]3(C)COC(C)(C)C[C@H]23)n1 (single isomer, unassigned) [Example 91] | 100 to 1000 nM |
| CN1CCC(c2ccc(Nc3ncc4c(n3)N(c3cccc(N=S(C)(C)=O)n3)[C@H]3CC(C)(C)OC[C@@]43C)cn2)CC1 (single isomer, unassigned) [Example 139] | 100 to 1000 nM |
| CN[C@@H]1CCN(c2ccc(Nc3ncc4c(n3)N(c3cccc(N5C(=O)OC[C@@H]5C)n3)[C@H]3CC(C)(C)OC[C@@]43C)cc2)C1 (single isomer, unassigned) [Example 318] | 10 to 100 nM |
| C[C@H]1COC(=O)N1c1cccc(N2c3nc(Nc4ccc(OC5CNC5)nc4)ncc3[C@@]3(C)COC(C)(C)C[C@@H]23)n1 (single isomer, unassigned) [Example 343] | < 10 nM |
| CN1CCC(n2cc(Nc3ncc4c(n3)N(c3cccc(C(C)(C)O)n3)[C@@H]3CC(C)(C)OC[C@]43C)cn2)CC1 (single isomer, unassigned) [Example 11] | < 10 nM |
| Cc1cc(Nc2ncc3c(n2)N(c2cccc(N4C(=O)OC[C@@H]4C)n2)[C@@H]2CC(C)(C)OC[C@]32C)ccc1C1CCN(C)CC1 (single isomer, unassigned) [Example 238] | < 10 nM |
| CN1CC(c2ccc(Nc3ncc4c(n3)N(c3cccc(N=S(C)(C)=O)n3)[C@H]3CC(C)(C)OC[C@@]43C)cc2Cl)C1 (single isomer, unassigned) [Example 182] | 100 to 1000 nM |
| CN1CC(c2ccc(Nc3ncc4c(n3)N(c3cccc(N=S(C)(C)=O)n3)[C@@H]3CC(C)(C)OC[C@]43C)cc2)C1 (single isomer, unassigned) [Example 165] | < 10 nM |
| CN1CCN(c2ccc(Nc3ncc4c(n3)N(c3cccc(C(C)(C)O)n3)[C@H]3CC(C)(C)OC[C@@]43C)cc2)CC1 (single isomer, unassigned) [Example 3] | 100 to 1000 nM |
| C[C@H]1COC(=O)N1c1cccc(N2c3nc(Nc4ccc([C@@H]5CCNC5)cc4)ncc3[C@]3(C)COC(C)(C)C[C@H]23)n1 (single isomer, unassigned) [Example 274] | 10 to 100 nM |
| CN1CCC(n2cnc(Nc3ncc4c(n3)N(c3cccc(N=S(C)(C)=O)n3)[C@H]3CC(C)(C)OC[C@@]43C)c2)CC1 (single isomer, unassigned) [Example 206] | 100 to 1000 nM |
| Cc1cc(Nc2ncc3c(n2)N(c2cccc(N4C(=O)OC[C@@H]4C)n2)[C@H]2CC(C)(C)OC[C@@]32C)ccc1O[C@@H]1CCNC1 (single isomer, unassigned) [Example 336] | 10 to 100 nM |
| CN[C@@H]1CCN(c2ccc(Nc3ncc4c(n3)N(c3cccc(N5C(=O)OC[C@@H]5C)n3)[C@@H]3CC(C)(C)OC[C@]43C)cc2)C1 (single isomer, unassigned) [Example 319] | < 10 nM |

---

- TESTED_SYSTEM: Wee1 kinase domain (Homo sapiens, UniProt P30291)
- Construct: Wee1 kinase domain was purchased from Carna (catalog #05-177); purchased Carna 05-177
- Sequence (P30291 299-569 limits assumed): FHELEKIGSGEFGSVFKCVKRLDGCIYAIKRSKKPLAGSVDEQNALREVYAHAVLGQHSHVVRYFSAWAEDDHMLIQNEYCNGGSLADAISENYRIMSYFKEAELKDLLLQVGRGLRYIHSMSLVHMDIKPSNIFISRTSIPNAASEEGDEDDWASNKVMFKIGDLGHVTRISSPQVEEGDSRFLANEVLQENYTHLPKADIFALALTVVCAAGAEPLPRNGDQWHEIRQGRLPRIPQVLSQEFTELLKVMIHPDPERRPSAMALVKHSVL
- PROTOCOL_DESCRIPTION: Wee1 Kinase Biochemical Assay (ADP-Glo)
- CONDITION_DESCRIPTION: class symbols; 1 nM Wee1 enzyme, 15 uM ATP, 4 hours at 25° C.
IC50: recorded values

| COMPOUND | TESTED_SYSTEM | IC50 |
| --- | --- | --- |
| CN1C[C@@H]2C[C@H]1CN2c1ccc(Nc2ncc3c(n2)N(c2cccc(N4C(=O)OCC4(C)C)n2)[C@@H]2CC(C)(C)OC[C@]32C)cc1 | Wee1 kinase domain (Homo sapiens, UniProt P30291) | < 0.01 µM |
| CN[C@@H](C)c1cccc(N2c3nc(Nc4ccc(N5C[C@@H]6C[C@H]5CO6)cc4)ncc3[C@@]3(C)COC(C)(C)C[C@@H]23)n1 (single isomer, unassigned) | Wee1 kinase domain (Homo sapiens, UniProt P30291) | < 0.01 µM |
| CN1CC2(C1)CN(c1ccc(Nc3ncc4c(n3)N(c3cccc(N5C(=O)OCC5(C)C)n3)[C@@H]3CC(C)(C)OC[C@]43C)cc1)C2 (single isomer, unassigned) | Wee1 kinase domain (Homo sapiens, UniProt P30291) | < 0.01 µM |
| CN[C@]1(C)CCc2ccc(N3c4nc(Nc5ccc(N6CCOCC6)cc5)ncc4[C@@]4(C)COC(C)(C)C[C@@H]34)nc21 (single isomer, unassigned) | Wee1 kinase domain (Homo sapiens, UniProt P30291) | < 0.01 µM |
| CN1C[C@H]2C[C@@H]1CN2c1ccc(Nc2ncc3c(n2)N(c2cccc(N=S(C)(C)=O)c2)[C@@H]2CC(C)(C)OC[C@]32C)cc1 | Wee1 kinase domain (Homo sapiens, UniProt P30291) | < 0.01 µM |
| CN=[S@](C)(=O)c1cccc(N2c3nc(Nc4ccc(C5CCN(C)CC5)cc4)ncc3[C@@]3(C)COC(C)(C)C[C@@H]23)n1 (single isomer, unassigned) | Wee1 kinase domain (Homo sapiens, UniProt P30291) | < 0.01 µM |
| CN1CC(c2ccc(Nc3ncc4c(n3)N(c3cccc(N5CCCC5=O)n3)[C@@H]3CC(C)(C)OC[C@]43C)cc2)C1 | Wee1 kinase domain (Homo sapiens, UniProt P30291) | < 0.01 µM |
| CC1(C)C[C@H]2N(c3ccccn3)c3nc(Nc4ccc(N5CCN6CC[C@@H]5C6)cc4)ncc3[C@@]2(C)CO1 | Wee1 kinase domain (Homo sapiens, UniProt P30291) | < 0.01 µM |
| CN1CC[C@@H](Oc2ccc(Nc3ncc4c(n3)N(c3cccc(C(C)(C)O)n3)[C@@H]3CC(C)(C)OC[C@]43C)cc2)C1 (single isomer, unassigned) | Wee1 kinase domain (Homo sapiens, UniProt P30291) | 0.01 to 0.1 µM |
| CN1CCN(c2ccc(Nc3ncc4c(n3)N(c3ccn(C(F)(F)F)n3)[C@@H]3CC(C)(C)OC[C@]43C)cc2)CC1 (single isomer, unassigned) | Wee1 kinase domain (Homo sapiens, UniProt P30291) | < 0.01 µM |
| CC1(C)C[C@H]2N(c3cccc(N=S(C)(C)=O)n3)c3nc(NC(=O)c4cccnc4)ncc3[C@@]2(C)CO1 (single isomer, unassigned) | Wee1 kinase domain (Homo sapiens, UniProt P30291) | 0.01 to 0.1 µM |
